Tested on: CCRF-CEM
test: NCI tumour cell line growth inhibition, 48 h
Active and inactive are the calls of the source. Rule as the data show it: active = GI50 up to about 1.1 µM and inactive = higher.
measured_endpoint: GI50

CCCCc1c2cnccc2c(CCCC)c2c1[nH]c1ccccc12: 9.38 µM (inactive)
O=C(O)CC(Cc1ccccc1Cl)C(=O)O (stereo not given): > 100 µM (inactive)
COc1ccc(C(OCC2OC(n3cc(C)c(=O)[nH]c3=O)CC2n2cc(Cn3cc(F)c(=O)[nH]c3=O)nn2)(c2ccccc2)c2ccccc2)cc1 (stereo not given): 2.56 µM (inactive)
CC(=O)/C=C1\CC(=O)N(C)c2ccccc2N1: > 100 µM (inactive)
O=C1C(=O)N(c2ccc(Cl)cc2)C(=O)/C(=N/c2cccc3c(=O)[nH][nH]c(=O)c23)C1c1nc2ccccc2o1 (stereo not given): > 100 µM (inactive)
CC(C)(C)c1ccc(C(O)c2ccc(C(C)(C)C)cc2)cc1: 16.9 µM (inactive)
CN(C)c1ccc(C2CC(=O)CC(c3ccc(N(C)C)cc3)C23C(=O)NC(=S)NC3=O)cc1 (stereo not given): > 100 µM (inactive)
CCCCCCCCCCC(O)CCCCCCC(=O)O (stereo not given): 27.5 µM (inactive)
COc1ccc(C2NC3=C(CCCC3)N2)cc1: > 100 µM (inactive)
O=C1N(C2CCCCC2)CC12CCCCC2: > 100 µM (inactive)

# GI50 lookup, item "CC(C)OP(=O)(CN(C)/C(F)=N\C(F)(F)F)OC(C)C"
> 100 µM (inactive)

# GI50 lookup, item "CSc1nc2nc(C)c(C)nc2c(=O)[nH]1"
> 100 µM (inactive)

# GI50 lookup, item "O=S(=O)([N-]c1nc2ccccc2nc1-[n+]1ccccc1)c1ccccc1"
10.8 µM (inactive)

# GI50 lookup, item "CC1=NN2C(=N)/C(=C/c3ccc(F)cc3)C(=O)N=C2S1"
> 100 µM (inactive)

# GI50 lookup, item "COc1ccc(OC)c2c(Nc3ccc(S(=O)(=O)O)c4cc(S(=O)(=O)O)cc(S(=O)(=O)O)c34)cc(C)nc12"
> 100 µM (inactive)

# GI50 lookup, item "Fc1ccc(NC(=S)SCc2ccc3c(c2)OCO3)cc1F"
23.4 µM (inactive)

# GI50 lookup, item "COc1ccc(/N=N/C(=N/NC(=O)c2cc(Cl)ccc2C(=O)c2ccccc2)c2ccc(N(CCC#N)CCC#N)cc2C)cc1"
4.54 µM (inactive)

# GI50 lookup, item Nc1ncc(/C=N/O)c(NCC2(CO)CC(CCc3ccccc3)C2)n1 (stereo not given)
14.7 µM (inactive)

# GI50 lookup, item "CN(C)CCO/N=C1/C=C2CC[C@H]3[C@@H]4CC[C@H](O)[C@@]4(C)CC[C@@H]3[C@@]2(C)CC1"
6.89 µM (inactive)

# GI50 lookup, item CCOc1cc2c(cc1O)CC[C@@H]1[C@@H]2CC[C@]2(C)C(N)CC[C@@H]12 (stereo not given in full)
1.73 µM (inactive)

* * *

Test system: SNB-19
test: NCI tumour cell line growth inhibition, 48 h
Activity calls are given as the source filed them. No stated cut-off is given here; in the data, active = GI50 up to about 1.1 µM and inactive = higher.
Give your call using only these classes: 1.0 for active, 0.0 for inactive

Examples with answers:
CC(C)(Oc1ccccc1)C(=O)Sc1c(-c2ccccc2)c(=O)n(-c2ccccc2)c(=S)n1-c1ccccc1: 0.0
CN(C)Cc1cc(/N=N/c2ccc(Cl)cc2)ccc1OC(=O)c1ccccc1: 0.0
C/C(NC(=O)c1ccccc1)=C(/C(=O)c1ccccc1)[C@@H]1OC(C)(C)O[C@@H]1[C@H]1COC(C)(C)O1: 0.0
C=Cc1cnc([N+](=O)[O-])n1C: 0.0
CN1CCN(C2=C(Cl)C3(OCCS3)C(F)(F)C2(F)F)CC1 (centres undefined): 0.0

Recorded test outcome, item "COC(=O)[C@]12CC[C@H]3CC[C@H]([C@H]31)[C@H](c1ccccc1)N2"
0.0

Recorded test outcome, item "COC(=O)/C(=C/c1ccc(OC)cc1)C(C(=O)O)=C(C)C"
0.0

Recorded test outcome, item COC(=O)/C=C(\C)CC/C=C(\C)CCC1OC1(C)C (centres undefined)
0.0

Reference source: ChEMBL document CHEMBL1201862
